# Tgt: UniProtKB P41145
# Sequence (P41145 whole entry): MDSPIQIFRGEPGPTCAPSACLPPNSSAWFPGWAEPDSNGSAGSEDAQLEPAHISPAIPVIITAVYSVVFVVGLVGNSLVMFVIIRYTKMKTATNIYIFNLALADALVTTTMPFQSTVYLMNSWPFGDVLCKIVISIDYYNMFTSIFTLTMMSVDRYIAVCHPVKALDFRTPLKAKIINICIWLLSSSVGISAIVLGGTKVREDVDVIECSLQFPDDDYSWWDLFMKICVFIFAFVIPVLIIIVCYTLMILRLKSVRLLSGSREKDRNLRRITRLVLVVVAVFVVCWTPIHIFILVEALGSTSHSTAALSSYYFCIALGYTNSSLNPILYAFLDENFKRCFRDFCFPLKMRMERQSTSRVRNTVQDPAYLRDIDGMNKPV
# Type: functional
Quantity name: EC50

Request: Kindly indicate its recorded EC50. Item: O=C1C2ON(c3ccccc3)C(c3cccnc3)C2C(=O)N1c1ccc(Cl)c(Cl)c1 (stereo unspecified)
Response: > 35 µM

----------
Parameter EC50: see the listing below.
# System: Streptococcus
# Procedure text: Group A Streptococcus viability loss, dose response, counter-screen for streptokinase expression inhibitor project, luminescence, BacTiterGlo (AID 1915);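 note: potency for reduction of bacterial viability or growth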
# Format: functional, organism-based
The source made the active and inactive calls.

Worked set:
[
  {
    "Compound string": "O=C(NC(=S)NNC(=O)c1ccccc1O)c1ccccc1",
    "Result": "8.1 µM (active)"
  },
  {
    "Compound string": "Cc1cc(Oc2ccc(-c3ccccc3)cc2)nc(N2CCOCC2)n1",
    "Result": "> 150 µM (not active)"
  },
  {
    "Compound string": "COc1ccc(OC)c(/C=N/n2c(S)nnc2-c2[nH]nc3c2CCC3)c1",
    "Result": "> 150 µM (not active)"
  },
  {
    "Compound string": "CC(C)(C)c1ccc(C(=O)NC(=S)NNC(=O)COc2ccccc2)cc1",
    "Result": "1.76 µM (active)"
  }
]

Request: Input [O-][n+]1cccc2c(Br)cc(Br)c(O)c21 , output reported EC50.
Response: 18.7 µM (active)

Request: Return EC50 (reported value) for this compound: CN(C)c1ccc(/C=C/c2ccc3ccccc3[n+]2C)cc1
Response: 11.5 µM (active)

Request: Report EC50 for Clc1ccc2c(N/N=C/c3cccc(Br)c3)ccnc2c1
Response: 4.4 µM (active)

Request: Please report EC50 for the following compound: COc1ccc(-c2cc3nc4ccccc4n3c(N)c2C#N)cc1
Response: 15.7 µM (active)

Request: Output EC50 of Cc1ccccc1NC(=O)NCCCCc1ccccc1
Response: > 150 µM (not active)

----------
Here the recorded EC50 is given for each entry.
# Tgt: Short transient receptor potential channel 4 (Mus musculus, UniProt Q9QUQ5)
# Sequence (Q9QUQ5 whole entry): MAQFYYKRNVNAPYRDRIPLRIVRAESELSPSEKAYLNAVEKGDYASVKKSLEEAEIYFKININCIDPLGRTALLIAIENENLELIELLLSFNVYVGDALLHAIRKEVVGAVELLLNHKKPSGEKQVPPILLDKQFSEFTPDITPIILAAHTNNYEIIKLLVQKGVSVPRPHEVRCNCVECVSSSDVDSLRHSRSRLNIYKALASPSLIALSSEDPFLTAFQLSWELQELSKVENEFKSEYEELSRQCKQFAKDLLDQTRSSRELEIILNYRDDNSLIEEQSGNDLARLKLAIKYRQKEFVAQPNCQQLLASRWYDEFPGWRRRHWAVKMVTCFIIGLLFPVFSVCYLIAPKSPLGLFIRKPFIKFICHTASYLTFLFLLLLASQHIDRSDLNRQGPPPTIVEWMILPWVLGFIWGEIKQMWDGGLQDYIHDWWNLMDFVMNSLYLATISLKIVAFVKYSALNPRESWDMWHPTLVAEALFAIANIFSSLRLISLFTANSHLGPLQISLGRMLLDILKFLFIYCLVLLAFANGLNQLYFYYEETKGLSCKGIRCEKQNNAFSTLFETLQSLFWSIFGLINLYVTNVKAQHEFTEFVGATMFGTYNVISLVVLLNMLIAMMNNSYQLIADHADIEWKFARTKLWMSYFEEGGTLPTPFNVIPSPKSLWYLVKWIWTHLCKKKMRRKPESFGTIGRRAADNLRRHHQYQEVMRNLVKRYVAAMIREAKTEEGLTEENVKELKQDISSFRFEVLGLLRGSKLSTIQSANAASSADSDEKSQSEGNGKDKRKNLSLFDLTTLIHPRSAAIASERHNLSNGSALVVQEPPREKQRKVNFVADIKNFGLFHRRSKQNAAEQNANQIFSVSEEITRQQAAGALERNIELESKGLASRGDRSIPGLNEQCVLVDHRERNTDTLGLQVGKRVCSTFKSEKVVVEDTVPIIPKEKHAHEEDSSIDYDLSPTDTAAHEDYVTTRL
# Procedure text: mouse TRPC4 channel inhibitors, dose response, cell-based, HEK293 TRPC4/mu-opioid, Fluo-4 calcium (AID 434942);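 note: potency of inhibitors blocking the TRPC4 calcium response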
# Format: functional
The source made the active and inactive calls.

See these solved cases before continuing.
[
  {
    "Compound": "CN(CC(=O)NC1CCCc2ccccc21)C1CCCCC1 (centres undefined)",
    "EC50": "13.3 µM (active)"
  },
  {
    "Compound": "COc1cccc(Cn2c(Oc3ccccc3)nc3c2c(=O)n(C)c(=O)n3C)c1",
    "EC50": "7.5 µM (active)"
  },
  {
    "Compound": "O=c1c2ccccc2[nH]c(=S)n1Cc1cccnc1",
    "EC50": "3.35 µM (active)"
  }
]

# ---- query compound ----
Request: Recall the reported EC50 of CC(C)(C)c1ccc(C(=O)NC(=S)NNC(=O)COc2ccccc2)cc1 on Short transient receptor potential channel 4 (Mus musculus, UniProt Q9QUQ5) and write it down.
Response: 6.68 µM (active)

----------
Catalogue of IC50 readings, one per entry.
# Tgt: Alkaline phosphatase, tissue-nonspecific isozyme (Homo sapiens)
# Sequence (P05186 whole entry): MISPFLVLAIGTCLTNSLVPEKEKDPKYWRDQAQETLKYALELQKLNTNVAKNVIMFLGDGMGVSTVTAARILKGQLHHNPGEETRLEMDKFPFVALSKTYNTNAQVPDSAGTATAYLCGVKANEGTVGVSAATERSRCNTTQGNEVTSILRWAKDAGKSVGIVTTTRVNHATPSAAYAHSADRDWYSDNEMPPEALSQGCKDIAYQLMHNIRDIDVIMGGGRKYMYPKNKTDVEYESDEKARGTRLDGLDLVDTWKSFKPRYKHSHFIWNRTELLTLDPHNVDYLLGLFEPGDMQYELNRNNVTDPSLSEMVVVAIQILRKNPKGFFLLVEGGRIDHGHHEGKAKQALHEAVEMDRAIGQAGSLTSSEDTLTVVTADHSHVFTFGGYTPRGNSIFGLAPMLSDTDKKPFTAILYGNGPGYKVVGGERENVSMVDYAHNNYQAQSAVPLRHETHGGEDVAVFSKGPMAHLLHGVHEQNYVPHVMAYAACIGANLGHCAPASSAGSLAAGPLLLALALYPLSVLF
# Procedure text: human TNAP enzyme inhibitors, SAR follow-up, biochemical, luminescent, dose response (AID 1056)
Activity calls are given as the source filed them.

[
  {
    "Compound string": "O=C(O)c1cc(-c2ccc3c(c2)OCCO3)n[nH]1",
    "IC50": "49.8 µM (active)"
  },
  {
    "Compound string": "CCn1cnc(-c2cccnc2)c1",
    "IC50": "> 100 µM (inactive)"
  },
  {
    "Compound string": "Cc1ccc(-n2nnnc2SCC(=O)c2ccc(O)c(O)c2)cc1",
    "IC50": "8.58 µM (active)"
  }
]

Request: Give the value of IC50 reported for the following: c1cnc(-c2cccnc2)nc1
Response: > 100 µM (inactive)
